System: Klebsiella pneumoniae
Test description: In vitro antibacterial activity, agar dilution method (MIC)
Format: cell-based
Run parameters: Klebsiella pneumoniae, ATCC700603, 18 h, Klebsiella pneumoniae ATCC 700603 (ESBLs-producing); agar dilution, 35°C, 18 hours; read-out: MIC
MIC by entry:
Measured attribute: MIC (mg/L)

>  <Compound>
COCC1CC1C#CC#Cc1ccc(C(=O)N[C@H](C(=O)NO)C(C)(C)N)cc1 (stereo partly shown) [Formula I]

>  <Relational operator>
=

>  <Experimental value>
4

$$$$
>  <Compound>
CO/N=C(\C(=O)N[C@@H]1C(=O)N2C(C(=O)[O-])=C(C[N+]3(C)CCCC3)CS[C@H]12)c1csc(N)n1 [Cefepime]

>  <Relational operator>
=

>  <Experimental value>
1

$$$$
>  <Compound>
NCC[C@H](O)C(=O)N[C@@H]1C[C@H](N)[C@@H](O[C@H]2O[C@H](CN)[C@@H](O)[C@H](O)[C@H]2O)[C@H](O)[C@H]1O[C@H]1O[C@H](CO)[C@@H](O)[C@H](N)[C@H]1O [Amikacin]

>  <Relational operator>
=

>  <Experimental value>
1

$$$$
>  <Compound>
COC[C@@H]1C[C@H]1C#CC#Cc1ccc(C(=O)N[C@H](C(=O)NO)C(C)(C)N)cc1 [Ia]

>  <Relational operator>
=

>  <Experimental value>
1

$$$$
>  <Compound>
C[C@H]1[C@H](NC(=O)/C(=N\OC(C)(C)C(=O)O)c2csc(N)n2)C(=O)N1S(=O)(=O)O [Aztreonam]

>  <Relational operator>
=

>  <Experimental value>
16

$$$$
>  <Compound>
C[C@@H](O)[C@H]1C(=O)N2C(C(=O)O)=C(S[C@@H]3CN[C@H](C(=O)N(C)C)C3)[C@H](C)[C@H]12 [Meropenem]

>  <Relational operator>
≤

>  <Experimental value>
0.03

$$$$
>  <Compound>
CC(C)(N)[C@H](NC(=O)c1ccc(C#CC#C[C@@H]2C[C@H]2CO)cc1)C(=O)NO [ACHN-975]

>  <Relational operator>
=

>  <Experimental value>
4

$$$$
